Tested on: Mycobacterium marinum
Assay: Antimycobacterial activity against Mycobacterium marinum CIP 6423
Type: functional
measure_name: MIC (µg/mL)
Give bare numbers, in µg/mL.

Example results:
Record request: MIC value, item `Cc1c(CN2CCN(C)CC2)cc(-c2ccc(Cl)cc2)n1-c1ccc(Cl)cc1` 100

Now the same for CO[C@H]1/C=C/O[C@@]2(C)Oc3c(C)c(O)c4c(O)c(c(/C=N/N5CCN(C)CC5)c(O)c4c3C2=O)NC(=O)/C(C)=C\C=C\[C@H](C)[C@H](O)[C@@H](C)[C@@H](O)[C@@H](C)[C@H](OC(C)=O)[C@@H]1C [RIFAMPIN] 0.5

Now the same for NNC(=O)c1ccncc1 [ISONIAZID] 16

Now the same for `Cc1ccc(-n2c(-c3ccc(Cl)cc3)cc(CN3CCSCC3)c2C)cc1` 16

Now the same for `Cc1c(CN2CCSCC2)cc(-c2ccc(C(C)C)cc2)n1-c1ccc(Cl)cc1` 4

Field: MIC. Fill in for each record below.
1. Cc1c(CN2CCSCC2)cc(-c2ccc(Cl)cc2)n1-c1ccc(C(C)C)cc1
2. CCc1ccc(-n2c(-c3ccc(Cl)cc3)cc(CN3CCSCC3)c2C)cc1
3. [H]/N=C(/N)N[C@H]1[C@H](O)[C@@H](O)[C@H](O[C@@H]2O[C@@H](C)[C@](O)(C=O)[C@H]2O[C@@H]2O[C@@H](CO)[C@H](O)[C@@H](O)[C@@H]2NC)[C@@H](N/C(N)=N\[H])[C@@H]1O (stereo in doubt) [STREPTOMYCIN]
4. Cc1ccc(-c2cc(CN3CCSCC3)c(C)n2-c2ccc(F)cc2)cc1
5. CCCc1ccc(-n2c(-c3ccc(F)cc3)cc(CN3CCSCC3)c2C)cc1

16
4
32
8
16

Field: MIC. Fill in for each record below.
1. CCCc1ccc(-c2cc(CN3CCSCC3)c(C)n2-c2ccc(Cl)cc2)cc1
2. Cc1c(CN2CCSCC2)cc(-c2ccc(C(C)C)cc2)n1-c1ccc(F)cc1
3. CCCc1ccc(-n2c(-c3ccc(Cl)cc3)cc(CN3CCSCC3)c2C)cc1
4. CCc1ccc(-c2cc(CN3CCSCC3)c(C)n2-c2ccc(Cl)cc2)cc1

1: 4; 2: 8; 3: 16; 4: 8

###

Test system: Mycobacterium tuberculosis
Experiment: Antimycobacterial activity against Mycobacterium tuberculosis H37Rv
Type: functional
measure_name: MIC (µg/mL)
Numbers only, in µg/mL.

Field: MIC. Fill in for each record below.
1. Cc1ccc(-c2cc(CN3CCSCC3)c(C)n2-c2ccc(Cl)cc2)cc1
2. CCCc1ccc(-c2cc(CN3CCSCC3)c(C)n2-c2ccc(Cl)cc2)cc1
3. Cc1ccc(-c2cc(CN3CCSCC3)c(C)n2-c2ccc(F)cc2)cc1
4. CCc1ccc(-n2c(-c3ccc(Cl)cc3)cc(CN3CCSCC3)c2C)cc1
5. NNC(=O)c1ccncc1

[0.5, 0.125, 0.125, 0.5, 0.25]

Field: MIC. Fill in for each record below.
1. Cc1c(CN2CCN(C)CC2)cc(-c2ccc(Cl)cc2)n1-c1ccc(Cl)cc1
2. CCCc1ccc(-n2c(-c3ccc(Cl)cc3)cc(CN3CCSCC3)c2C)cc1
3. Cc1c(CN2CCSCC2)cc(-c2ccc(C(C)C)cc2)n1-c1ccc(Cl)cc1
4. Cc1c(CN2CCSCC2)cc(-c2ccc(C(C)C)cc2)n1-c1ccc(F)cc1
5. Cc1ccc(-n2c(-c3ccc(Cl)cc3)cc(CN3CCSCC3)c2C)cc1

1. 2
2. 0.25
3. 0.125
4. 0.25
5. 0.5

###

Test system: Vero
Assay: Cytotoxicity against african green monkey Vero cells after 5 days
Type: cell-based
Settings: chlorocebus sabaeus, 120 h
Provide the reported MNTD50 of each item.
Numbers only, in µg/mL.

Example results:
Record request: MNTD50 value, item `CCc1ccc(-c2cc(CN3CCSCC3)c(C)n2-c2ccc(F)cc2)cc1` 16

Now the same for `Cc1ccc(-n2c(-c3ccc(Cl)cc3)cc(CN3CCSCC3)c2C)cc1` 16

Now the same for `Cc1c(CN2CCSCC2)cc(-c2ccc(C(C)C)cc2)n1-c1ccc(Cl)cc1` 8

Now the same for `CCCc1ccc(-n2c(-c3ccc(Cl)cc3)cc(CN3CCSCC3)c2C)cc1` 32

New cases:
Record request: MNTD50 value, item `CCc1ccc(-c2cc(CN3CCSCC3)c(C)n2-c2ccc(Cl)cc2)cc1` 16

###

Test system: Vero
Test: Cytotoxicity against african green monkey Vero cells after 5 days
Type: cell-based
Conditions: chlorocebus sabaeus, 120 h
Provide the reported MNTD50 of each item.
Give bare numbers, in µg/mL.

Example results:
Record request: MNTD50 value, item NNC(=O)c1ccncc1 [ISONIAZID] 32

Now the same for `Cc1c(CN2CCN(C)CC2)cc(-c2ccc(Cl)cc2)n1-c1ccc(Cl)cc1` 4

Now the same for `CCCc1ccc(-n2c(-c3ccc(F)cc3)cc(CN3CCSCC3)c2C)cc1` 4

Now the same for `Cc1c(CN2CCSCC2)cc(-c2ccc(F)cc2)n1-c1ccc(C(C)C)cc1` 8

Now the same for `CCCc1ccc(-c2cc(CN3CCSCC3)c(C)n2-c2ccc(F)cc2)cc1` 4

Now the same for CO[C@H]1/C=C/O[C@@]2(C)Oc3c(C)c(O)c4c(O)c(c(/C=N/N5CCN(C)CC5)c(O)c4c3C2=O)NC(=O)/C(C)=C\C=C\[C@H](C)[C@H](O)[C@@H](C)[C@@H](O)[C@@H](C)[C@H](OC(C)=O)[C@@H]1C [RIFAMPIN] 64

Now the same for `CCc1ccc(-n2c(-c3ccc(Cl)cc3)cc(CN3CCSCC3)c2C)cc1` 16

Now the same for `Cc1ccc(-c2cc(CN3CCSCC3)c(C)n2-c2ccc(Cl)cc2)cc1` 64

Field: MNTD50. Fill in for each record below.
1. Cc1c(CN2CCSCC2)cc(-c2ccc(C(C)C)cc2)n1-c1ccc(F)cc1
2. Cc1c(CN2CCSCC2)cc(-c2ccc(Cl)cc2)n1-c1ccc(C(C)C)cc1
3. Cc1ccc(-c2cc(CN3CCSCC3)c(C)n2-c2ccc(F)cc2)cc1
4. CCCc1ccc(-c2cc(CN3CCSCC3)c(C)n2-c2ccc(Cl)cc2)cc1
5. CCc1ccc(-n2c(-c3ccc(F)cc3)cc(CN3CCSCC3)c2C)cc1

32
32
64
16
2
